Experimental Target: IL-17A/A (Homo sapiens, UniProt Q16552)
Test Description: HEK-Blue IL-17A/A inhibition assay (SEAP reporter)
Conditions: HEK-Blue cells (HEK 293 expressing IL-17RA, IL-17RC, Act1); IL-17A/A stimulation; 20 hours; SEAP read at A630; 4-parameter fit
pIC50: −log10 of the molar value.
Property Measured: pIC50

// recorded pIC50 for COCC(C(=O)NCC(F)(F)F)c1ccc(NC(=O)[C@@H](NC(=O)c2ccnn2C(C)C)C(C2CC2)C2CC2)c(F)c1 (single isomer, unassigned) [Compound 105] : > 7.00

What the record says about CC(C(=O)NCC(F)(F)F)c1cc(F)c(NC(=O)[C@@H](NC(=O)c2ccnn2C(C)C)C(C2CC2)C2CC2)cc1Nc1ccccn1 (single isomer, unassigned) [Compound 262] : pIC50 is < 6.00

Lab note: CCn1ncc(F)c1C(=O)N[C@H](C(=O)Nc1ccc([C@H](C)C(=O)NCC(F)(F)F)cc1F)C(C1CC1)C1CC1 gave pIC50 of < 6.00

Measured pIC50 of CCC(c1ccc(F)cc1)[C@H](NC(=O)c1ccnn1C(C)C)C(=O)Nc1cc(OC)c(C(C)C(=O)NCC(F)(F)F)cc1F (stereo partly drawn) : 6.00 to 7.00

Entry CCOC(=O)Nc1cc(NC(=O)[C@@H](NC(=O)c2ccnn2C(C)C)C(C2CC2)C2CC2)c(F)cc1C(C)C(=O)NCC(F)(F)F (single isomer, unassigned) [Compound 158] — recorded pIC50 = > 7.00

pIC50 in this record for CC(C)n1nccc1C(=O)N[C@H](C(=O)Nc1ccc(C(CO)C(=O)NCC(F)(F)F)cc1F)C(C1CC1)C1CC1 (stereo partly drawn) [Compound 193] : < 6.00

# pIC50 of CC(C(=O)NCC(F)(F)F)c1cc(F)c(NC(=O)[C@@H](NC(=O)c2ccnn2C(C)C)C(C2CC2)C2CC2)cc1N1CCOCC1 (stereo partly drawn) [Compound 232] = < 6.00

Form: compound = CC(C)n1nccc1C(=O)N[C@H](C(=O)Nc1ccc(C(C)(C)C(=O)NCC(F)(F)F)cc1F)C(C1CC1)C1CC1 ; pIC50 = 6.00 to 7.00

Data point: CC(C)c1nonc1C(=O)N[C@H](C(=O)Nc1cc(C(F)(F)F)c(C(C)C(=O)NCC(F)(F)F)cc1F)C(C1CC1)C1CC1 (stereo partly drawn) ; pIC50 = 6.00 to 7.00

The compound CCc1nonc1C(=O)N[C@H](C(=O)Nc1cc(C)c(C(C)C(=O)N(C)CC(F)(F)F)cc1F)C(C1CC1)C1CC1 (stereo partly drawn) showed pIC50 equal to > 7.00

The recorded pIC50 for entry CC(=O)NC1CCN(C(=O)[C@@H](C)c2ccc(NC(=O)[C@@H](NC(=O)c3ccnn3C(C)C)C(C3CC3)C3CC3)c(F)c2)C1 (stereo partly drawn) equals < 6.00

Input CCn1nccc1C(=O)N[C@H](C(=O)Nc1ccc([C@H](C)C(=O)N(C)CC(F)(F)F)cc1F)[C@H]1CC[C@H](C)CC1 . Output pIC50: > 7.00

====

Answer each item with its documented IC50.
Experimental Target: IL-17A/A (Homo sapiens, UniProt Q16552)
Sequence (Q16552 24-155): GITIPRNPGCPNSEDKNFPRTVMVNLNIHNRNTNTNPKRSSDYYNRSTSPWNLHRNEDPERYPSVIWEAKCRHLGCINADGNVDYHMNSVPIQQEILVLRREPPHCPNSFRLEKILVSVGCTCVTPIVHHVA
Test Description: HEK-Blue IL-17A/A inhibition assay (SEAP reporter)
Conditions: HEK-Blue cells (HEK 293 expressing IL-17RA, IL-17RC, Act1); IL-17A/A stimulation; 20 hours; SEAP read at A630; 4-parameter fit

Recorded IC50 (compound CC(C)n1nccc1C(=O)N[C@H](C(=O)Nc1ccc([C@H](C)C(=O)N2CCN(CC(F)(F)F)CC2)cc1F)C(C1CC1)C1CC1 ): 100 to 1000 nM

# IC50 (compound: CC(C)n1nccc1C(=O)N[C@H](C(=O)Nc1ccc([C@H](C)C(=O)NCC(F)(F)C(F)(F)F)cc1F)C(C1CC1)C1CC1 ) is 100 to 1000 nM

The reported value for CC(C(=O)NCC(F)(F)F)c1cc(F)c(NC(=O)[C@@H](NC(=O)c2ccnn2C(C)C)C(C2CC2)C2CC2)cc1C(N)=O (single isomer, unassigned) [Compound 116] in terms of IC50 is > 1000 nM

Just so you know, measured IC50 for CCn1nccc1C(=O)N[C@H](C(=O)Nc1ccc([C@H](C)C(=O)N(C)CC(F)(F)F)cc1F)[C@H](c1ccccc1Cl)C(C)C came out at > 1000 nM

Per the record, CCn1nccc1C(=O)N[C@H](C(=O)Nc1ccc(CC(=O)NCC(F)(F)F)cc1F)C1CCCCCC1 has IC50 of 100 to 1000 nM

Value of measured IC50 for the entry CC(C)n1nccc1C(=O)N[C@H](C(=O)Nc1ccc([C@H](C)C(=O)NC(C2CCOC2)C(F)(F)F)cc1F)C(C1CC1)C1CC1 (single isomer, unassigned) [Compound 152] : 100 to 1000 nM

Kindly note the recorded IC50 for CC(C)n1nccc1C(=O)N[C@H](C(=O)Nc1ccc([C@H](C)C(=O)NC(c2ccccc2)C(F)(F)F)cc1F)C(C1CC1)C1CC1 (stereo partly drawn) , which is 100 to 1000 nM

Note to self: IC50 recorded for CC(C)n1nccc1C(=O)N[C@H](C(=O)Nc1ccc([C@H](C)C(=O)N2C(C(N)=O)CCC2C(F)(F)F)cc1F)C(C1CC1)C1CC1 (single isomer, unassigned) [Compound 148] was > 1000 nM

// IC50 lookup, compound = CCn1nccc1C(=O)N[C@H](C(=O)Nc1ccc([C@H](C)C(=O)NC(CCO)C(F)(F)F)cc1F)C(C1CC1)C1CC1 (stereo partly drawn) , result: 100 to 1000 nM

compound Cc1cc(NC(=O)[C@@H](NC(=O)c2ccnn2C)C2CCC(F)(F)CC2)c(F)cc1C(C)C(=O)NCC(F)(F)F (stereo partly drawn) , IC50 observed: > 1000 nM

For CC(C(=O)NCC(F)(F)F)c1cc(F)c(NC(=O)[C@@H](NC(=O)c2ccnn2C(C)C)C(C2CC2)C2CC2)cc1CN (stereo partly drawn) the compound record lists IC50 as 100 to 1000 nM

Quick note, IC50 for CC(C)n1nccc1C(=O)N[C@H](C(=O)Nc1ccc([C@H](C)C(=O)N2C[C@@H](O)[C@@H](F)C2)cc1F)C(C1CC1)C1CC1 landed at > 1000 nM
